Values were extracted from PubChem BioAssay AID248.

tested on: L1210 leukemia ip in BDF1 mice, survival T/C; test: NCI In Vivo Anticancer Drug Screen. Data for tumor model L1210 Leukemia (intraperitoneal) in B6D2F1 (BDF1) mice; conditions: endpoint: mean survival time; dose: 400.0 mg/kg/injection; schedule: Q04DX003 (ip); vehicle: Klucel (hydroxypropylcellulose) (HPC); higher = longer survival
Inconclusive results and toxic doses are left out.
assay_metric: T/C

Use the examples below as a reference point.
1) Cc1noc(/N=C(/C(=N/c2onc(C)c2C)c2ccccc2)c2ccccc2)c1C = 97 % of control
2) Ic1ccc(Oc2ccc(I)cc2)cc1 = 98 % of control
3) O=C(Nc1ccccc1C(F)(F)F)c1ccc(Cl)cc1 = 88 % of control
4) O=[N+]([O-])c1cc2c3ccccc3c(F)cc2c2ccccc12 = 101 % of control

For this compound ( `S=c1[nH]n2c(=S)[nH]nc2s1` ), measured T/C is 93 % of control

Note to self: T/C recorded for `Clc1ccc(N=Cc2ccccc2)cc1` was 104 % of control

Recorded T/C (compound `Cc1cccc(NC(=O)c2cccc(C(=O)Nc3cccc(C)c3C)c2)c1C` ): 93 % of control

// T/C value for `CCCCOC(OCCCC)C(C)=O` : 102 % of control
